# target.under.test: kappa opioid receptor (Rattus norvegicus, UniProt P34975)
# Construct: expressed in transfected cells; host or cells: HEK293
# test.description: biochemical
# Format: binding
Reported values of Ki for individual entries

Some compounds with recorded Ki:
compound	Ki
CC[C@]12CCN(CC3CC3)[C@H](C(=O)c3ccc(O)cc31)[C@@H]2C [EKC, ethylketocyclazocine]	5.7 nM
CCC12CCN(CC3(O)CC3)C(Cc3ccc(O)cc31)C2(C)C (stereo not shown) [Bremazocine]	0.4 nM
Oc1ccc2c3c1O[C@H]1c4[nH]c5c(c4C[C@@]4(O)[C@@H](C2)N(CC2CC2)CC[C@]314)C[C@@]1(O)[C@H]2Cc3ccc(O)c4c3[C@@]1(CCN2CC1CC1)[C@H]5O4 [nor-BNI, nor-binaltorphimine]	4.9 nM

[in] Request the reported Ki associated with Oc1ccc2c3c1O[C@H]1c4[nH]c5ccccc5c4C[C@@]4(O)[C@@H](C2)N(CC2CC2)CC[C@]314 [Naltrinole]
[out] 44.3 nM

###

# target.under.test: kappa opioid receptor (Rattus norvegicus, UniProt P34975)
# Construct: expressed in transfected cells; host or cells: HEK293
# test.description: biochemical
# Format: binding
# applied.conditions: read-out: Kappa (Ki)
quantity.name: pKi
Interpret pKi as the negative base-10 log of the concentration measured in mol/L.

[in] What value of measured pKi is listed for O=C1C(=Cc2ccccc2)C[C@@]2(O)[C@H]3Cc4ccc(O)c5c4[C@@]2(CCN3CC2CC2)[C@H]1O5 [BNTX, 7-Benzylidenenaltrexone] ?
[out] 6.76

###

# target.under.test: kappa-delta heterodimer (UniProt P32300+P34975)
# Construct: myc; FLAG; expressed in transfected cells; host or cells: HEK293
# Sequence (P34975 whole entry): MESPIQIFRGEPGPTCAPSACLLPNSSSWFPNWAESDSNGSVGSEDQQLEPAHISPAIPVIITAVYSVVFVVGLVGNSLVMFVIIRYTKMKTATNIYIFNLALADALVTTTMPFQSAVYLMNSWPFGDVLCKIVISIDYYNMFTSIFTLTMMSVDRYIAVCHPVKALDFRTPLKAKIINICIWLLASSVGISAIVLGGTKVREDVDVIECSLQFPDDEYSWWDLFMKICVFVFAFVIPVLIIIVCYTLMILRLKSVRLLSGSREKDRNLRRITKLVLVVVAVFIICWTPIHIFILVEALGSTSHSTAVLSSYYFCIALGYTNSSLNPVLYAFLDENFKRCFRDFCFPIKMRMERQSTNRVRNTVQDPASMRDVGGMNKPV
# Sequence (P32300 whole entry): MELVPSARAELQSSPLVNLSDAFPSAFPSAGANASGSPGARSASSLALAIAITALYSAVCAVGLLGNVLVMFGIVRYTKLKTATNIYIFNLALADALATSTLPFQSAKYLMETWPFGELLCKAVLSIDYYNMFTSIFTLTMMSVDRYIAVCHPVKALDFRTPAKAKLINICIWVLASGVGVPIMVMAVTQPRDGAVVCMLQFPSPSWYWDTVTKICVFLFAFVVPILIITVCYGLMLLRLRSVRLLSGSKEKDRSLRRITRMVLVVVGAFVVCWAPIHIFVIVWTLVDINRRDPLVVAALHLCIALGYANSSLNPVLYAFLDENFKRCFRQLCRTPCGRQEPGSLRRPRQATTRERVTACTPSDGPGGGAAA
# test.description: biochemical
# Assay type: binding, rat kappa, mouse delta
# applied.conditions: Kappa-Delta (Ki)
quantity.name: Ki (nM)
Hi! Could you send only the number? It should be in nM, unit omitted.

>>> print(df.to_string())
                                   compound  quantity_name  measured_result
0  CCC12CCN(CC3(O)CC3)C(Cc3ccc(O)cc31)C2(C)C (stereo not drawn) [Bremazocine]             Ki              1.2
1  CC[C@]12CCN(CC3CC3)[C@H](C(=O)c3ccc(O)cc31)[C@@H]2C [EKC, ethylketocyclazocine]             Ki              2.6

[in] # query: Ki of entry Oc1ccc2c3c1O[C@H]1c4[nH]c5ccccc5c4C[C@@]4(O)[C@@H](C2)N(CC2CC2)CC[C@]314 [Naltrinole]
[out] 44
